Please go through the items and note down their reverse-splicing fitness.
B1: Azoarcus group I ribozyme (parent)
chain: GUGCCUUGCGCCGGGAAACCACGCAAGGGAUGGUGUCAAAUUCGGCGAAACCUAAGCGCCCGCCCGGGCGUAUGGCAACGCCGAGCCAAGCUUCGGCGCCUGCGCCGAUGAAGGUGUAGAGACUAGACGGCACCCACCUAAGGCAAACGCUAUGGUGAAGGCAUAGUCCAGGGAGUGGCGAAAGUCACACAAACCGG

variants of: B1; test: reverse-splicing fitness (ratio to wild type); higher = more active; in vitro selection; Mg2+ level not given
Give bare numbers.

Solved entries:
>>> value("C82G A111C A120U C169U U176C")
0.00475
>>> value("A111G A120U C150U C169G U176G")
0.00215
>>> value("C82A A111C C150U C169U U176G")
0.00804
>>> value("C82A A111G A120C A145G C150A U176G")
0.0103
>>> value("A111U A120G A145C C150U")
0.0388

Quick request: reverse-splicing fitness for each listed item, please.
1. C82U A111C A120U A145U C150U C169G U176A
2. C82A A120C C169G U176G

a:
1. 0.00231
2. 0.00508

Where these numbers come from: the RNAGym collection of RNA variant scans (doi:10.1093/molbev/msab373)
